tested on: Zika virus NS2B-NS3 protease (linked construct); assay: Primary screen NINDS Rhodamine qHTS for Zika virus inhibitors (AID 1347160); details: purified NS2B-NS3 protease, Rhodamine110 substrate fluorescence; series mostly up to 57.1 µM; further: nearly all actives have a fitted effect of over 55% in size
Inconclusive results are not listed. Calls of active or inactive are those of the source. The call rests on the fitted dose curve; in most records, active means well fitted inhibition curve with a large enough effect; inconclusive means small, poorly fitted or top-dose-only effect; inactive means no such curve, though single readings can be large or run the other way.
Labels: active, inactive

Compound | Category
CN1CCN(C(=O)c2ccc(Nc3nccc(-c4cccs4)n3)cc2Cl)CC1 | inactive
C=C1C[C@@]23C=CC(=O)[C@@](C)(CCCC(C)C(=O)O)[C@@H]2C[C@@H]1CC3 (some centres not stated) | active
CC1CCN(c2cc(NC(=O)c3ccccc3)ncn2)CC1 | inactive
COc1ccccc1-c1cc(Nc2cccc(CS(N)(=O)=O)c2)ncn1 | inactive
C=C1C(=O)O[C@@H]2CC(C)=C([C@@H](C)CCCO)[C@@H](OC(=O)C(C)C)[C@H]12 | inactive
COc1ccccc1-c1c[nH]c2ncc(-c3cncc(C(=O)N(C)C)c3)cc12 | inactive
C=C(NC(=O)c1csc(-c2nc3c(cc2O)-c2nc(cs2)C(=O)NC(C(C)O)C(=O)N/C(=C(\C)O)c2nc(cs2)C(=O)NC2c4nc(cs4)C(=O)NC(COC(=O)c4c5c6c(cccc6n4O)COC(=O)[C@@H](OC4C[C@](C)(O)[C@H](N(C)C)[C@H](C)O4)C2OC5)c2nc-3cs2)n1)C(N)=O (some centres not stated) | active
CCCCn1c(-c2ccccc2)nc(-c2ccccc2)c1CN(Cc1ccc2c(c1)OCO2)Cc1ccc2c(c1)OCO2 | inactive
C[C@@H]1C(=O)[C@]23CC[C@H]1C[C@]21O[C@H]2C(C)(C)C=CC(=O)[C@]23COC1=O | inactive
Cc1ccc(C(=O)N2CCN(c3ccc([N+](=O)[O-])cc3)CC2)cc1Cl | inactive
CC(C)(C)c1ccc(CNC(=S)NCc2ccc(NS(C)(=O)=O)c(F)c2)cc1 | inactive
C=C1C(=O)O[C@@H]2C[C@@]3(C)CCC[C@H](C)C3=C[C@H]12 | inactive
Cc1ccc2c(Nc3ccc(Cl)cc3)nccc2c1Nc1ncccc1-c1ncnc2nc[nH]c12 | inactive
C/C1=C\CC(=O)/C=C/C=C\c2csc(n2)[C@@H](C)NC(=O)C[C@@](S)([C@@H](C)C(=O)O)CC1 | active
Cn1cc(-c2cnc3ccc4ccc(CS(=O)(=O)NCc5ccccn5)cc4c(=O)c3c2)cn1 | inactive
CC(C)COc1ccc(CNC(=O)N(Cc2ccc(F)cc2)C2CCN(C)CC2)cc1 | inactive
CNc1ccc(Cl)cc1C(=O)OC[C@]1(C)[C@H]2CC[C@]3(C)[C@@H](C[C@@H](OC)[C@H](C)[C@H]3C3=C(O)C(=O)OC3O)[C@]2(C)CC[C@H]1O (some centres not stated) | active
C=C1[C@H]2CC[C@@]3(C=CC(=O)[C@@](C)(CCC(=O)Nc4c(O)ccc(C(=O)O)c4O)C3C2)[C@H]1O (some centres not stated) | active
C=C1/C=C\C(CCC)=C\c2csc(n2)C(C)NC(=O)C[C@@]2(CC(=O)O)CCC(=C)[C@H](C1)S2 (some centres not stated) | active
COc1cc(-c2cc(-c3cccc(O)c3)cnc2N)cc(OC)c1OC | inactive
CO[C@@H]1[C@H](O)[C@@H](C)O[C@@H](OC[C@H]2/C=C/C=C/C(=O)C(C)C[C@H](C)C(O[C@@H]3O[C@H](C)CC4(OC(=O)O[C@@H]4C)C3O)[C@@H](C)/C=C/C(=O)OC2C)[C@@H]1OC (some centres not stated) | active
N#Cc1ccc(-c2ccc(NC(=O)Nc3ccc(-c4ccnc5nc[nH]c45)cc3)cc2)cc1 | inactive
